Numbers sourced from patent US5525617A.

- Tested on: gel-filtered human platelets
- assay method text: in vitro ADP-stimulated platelet aggregation (inhibition)
- Type: cell-based
- condition: gel-filtered human platelets 2×10^8 per ml, fibrinogen 100 micrograms per ml, Ca^2+ 1 mM, 10 mM ADP, 37° C., Chronolog aggregometer
pIC50: −log10 of the molar value.
measurement name: pIC50

P = CCCCS(=O)(=O)N[C@@H](CNC(=O)c1ccc2c(c1)CC(CCC1CCNCC1)C2)C(=O)O (stereo partly drawn)
Q = O=C(O)CCNC(=O)c1ccc2c(c1)C(=O)C(CCC1CCNCC1)C2 (stereo not drawn)
R = CCCCS(=O)(=O)N[C@@H](CNC(=O)c1ccc2c(c1)C(=O)C(CCC1CCNCC1)C2)C(=O)O (stereo partly drawn)
Please put the entries in order of rising pIC50. Would you mind listing the labels in the order asked for?
Q, P, R
(Q: 5.64, P: 7.85, R: 8.05)
